Recorded pKi values for a group of binders are listed next.
Molecular target: rat Y4 receptor (rat, UniProt Q63447)
Assay: 125I-PYY displacement, COS-7 membranes
Ends that are not written are not given here.
# pKi: negative log10 of molar concentration; output just the value

Solved entries:
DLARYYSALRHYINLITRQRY (ends and bridges not checked) [porcine NPY16-36] ... 6.70
PLEPVY [human PP31-36] ... 7.59

# input for lookup
Requested read-out: pKi. Entry: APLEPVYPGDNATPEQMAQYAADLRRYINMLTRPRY [human PP]
10.40

Just for reference, patent US20020103123A1 is where these values come from.
